Source listed as patent US20160185837A1.

molecular target: human GLP-1 receptor (human) (UniProt P43220); assay: cell-based or functional assay
Sequence (P43220 24-463): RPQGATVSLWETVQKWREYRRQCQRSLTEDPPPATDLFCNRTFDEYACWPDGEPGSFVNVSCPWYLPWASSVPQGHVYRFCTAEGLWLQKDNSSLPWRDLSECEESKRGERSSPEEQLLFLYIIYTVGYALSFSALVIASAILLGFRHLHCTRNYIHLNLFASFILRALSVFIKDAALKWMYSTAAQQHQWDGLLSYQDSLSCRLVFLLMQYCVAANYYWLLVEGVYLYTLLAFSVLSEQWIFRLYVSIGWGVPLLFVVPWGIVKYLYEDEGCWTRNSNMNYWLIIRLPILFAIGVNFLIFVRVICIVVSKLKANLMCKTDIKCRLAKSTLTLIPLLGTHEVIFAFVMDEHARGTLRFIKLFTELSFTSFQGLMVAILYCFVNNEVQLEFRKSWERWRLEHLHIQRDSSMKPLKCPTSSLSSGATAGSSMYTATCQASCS
Attribute: cAMP EC50

So what does the record say about cAMP EC50 for IP331 (Fc fusion) YSEGTFTSDYSKLLERQAIDEFIADLLKGGGGGGGSGGGGSGGGGSGGGGSGGGGSGGGGSA ?
2.6 nM

So what does the record say about cAMP EC50 for IP336 (Fc fusion) YSEGTFISDYSIAMDKIHQQDFVNWLLAQKGGGGGSGGGGSGGGGSGGGGSGGGGSGGGGSA ?
> 4510 nM

So what does the record say about cAMP EC50 for IP329 (Fc fusion) YSEGTFTSDYSKLLERQAIDEFIAELLKGGGGGGGSGGGGSGGGGSGGGGSGGGGSGGGGSA ?
1.4 nM

So what does the record say about cAMP EC50 for IP402 (Fc fusion) YSEGTFISDYSIAMDKIHQQDFVNWLLAQKGSGGGGSGGGGSGGGGSGGGGSGGGGSGGGGSGGGGSACPPC ?
31 nM

So what does the record say about cAMP EC50 for IP312 (Fc fusion) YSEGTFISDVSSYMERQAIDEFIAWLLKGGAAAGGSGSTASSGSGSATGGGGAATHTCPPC ?
> 5310 nM

So what does the record say about cAMP EC50 for IP342 (Fc fusion) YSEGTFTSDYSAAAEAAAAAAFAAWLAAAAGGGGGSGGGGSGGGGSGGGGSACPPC ?
75 nM
